B1: VH:VL chains; a variant is named by its letters at X, in order (parent)
chain 1: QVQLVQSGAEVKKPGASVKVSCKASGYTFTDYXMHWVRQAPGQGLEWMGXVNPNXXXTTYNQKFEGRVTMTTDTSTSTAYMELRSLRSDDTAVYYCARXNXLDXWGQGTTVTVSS
chain 2: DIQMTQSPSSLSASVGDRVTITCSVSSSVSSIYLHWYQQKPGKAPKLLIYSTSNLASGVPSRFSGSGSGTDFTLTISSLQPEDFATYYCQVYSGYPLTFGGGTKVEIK

Variants of: B1
Test: yeast display scFab, FACS + sequencing
quantity_measured: non-specific binding call

YRAGGSVA : binds
VRRRGALA : binds
VRRGDFWA : no binding
DRGGDAVA : no binding
DGKEGYWA : binds
VKKESDSY : no binding
ARRGGSGS : binds
